# System: A549 NSCLC
# Assay Text: NCI tumour cell line growth inhibition, 48 h
// TGI lookup, one value per entry

Solved entries:
- Compound: "O=C(/C=C/c1ccccc1)c1cc(CN2CCOCC2)c(O)c(CN2CCOCC2)c1"
  Target: "A549 NSCLC"
  TGI: "33.2 µM"
- Compound: "CCCCCCCCCCCCCCCC(=O)OCC1OC(n2cc(F)c(=O)[nH]c2=O)C(NC(=O)OCc2ccccc2)C(O)C1O (centres undefined)"
  Target: "A549 NSCLC"
  TGI: "38.5 µM"
- Compound: "OCCN1CCN(c2nc(N3CCCC3)c3nc(Cl)c(NCc4ccccc4)nc3n2)CC1"
  Target: "A549 NSCLC"
  TGI: "21.4 µM"
- Compound: "COC1=C(OC)C(=O)C(Cc2c(Cl)nc3sccn23)=C(C)C1=O"
  Target: "A549 NSCLC"
  TGI: "25.1 µM"
- Compound: "Cc1ccc(C(=O)Nc2ccc(Oc3cc4cnn(C)c4cc3-c3cn[nH]c3)c(F)c2)c(=O)n1-c1ccc(F)cc1"
  Target: "A549 NSCLC"
  TGI: "> 100 µM"
- Compound: "COc1ccc(C(=CCC(C)C2CCC3[C@@H]4C(OC(C)=O)CC5CC(OC(C)=O)CC[C@]5(C)C4CC(OC(C)=O)[C@]23C)c2ccc(OC)cc2)cc1 (some centres undefined)"
  Target: "A549 NSCLC"
  TGI: "> 100 µM"
- Compound: "N#Cc1ccccc1Sc1ccccc1N"
  Target: "A549 NSCLC"
  TGI: "> 100 µM"
- Compound: "C/C(=N/NC(=S)Nc1ccc(C)cc1)c1ccccn1"
  Target: "A549 NSCLC"
  TGI: "14 µM"
- Compound: "O=C(CCCCN1CCN(CCCCC(=O)Nc2ccccc2C#C/C=C\\C#Cc2ccccc2C(F)(F)F)CC1)Nc1ccccc1C#C/C=C\\C#Cc1ccccc1C(F)(F)F"
  Target: "A549 NSCLC"
  TGI: "37.6 µM"
- Compound: "Nc1c(C(=O)O)c2ccc([N+](=O)[O-])cc2c(=O)n1-c1nc2ccccc2s1"
  Target: "A549 NSCLC"
  TGI: "> 100 µM"

Query block: Need TGI, item N#CN1CC[C@H](C(=O)Nc2ncc(-c3ccccc3)s2)C1
Result block: 8.61 µM

Query block: So what's the measured TGI for this one? O=C1Nc2ccc(-c3cccnc3)cc2/C1=C/c1cc(Br)c(O)c(Br)c1
Result block: > 25 µM

---

# Test system: DMS 273 small cell lung
# Assay Text: NCI tumour cell line growth inhibition, 48 h
# TGI annotations
// note: answer is a bare numeric in µM

Please review the entries below; each comes with its answer.
- Compound: "C/C(CCN(C)C)=N/O"
  Readout Value: 18.3
- Compound: "Cc1ccc(S(=O)(=O)Nc2ccccc2C(C)(C)C)cc1"
  Readout Value: 38.5
- Compound: "CCCCCCCCCCCCCC(=O)O[C@H]1CC[C@H](NC(=O)[C@H](OC)[C@H](O)[C@@H](O)[C@H](O)/C=C/C(C)C)C(=O)N(C)C1"
  Readout Value: 0.00403
- Compound: "CCCCCCCCCCCCCCCC(=O)OCC1OC(n2cc(F)c(=O)[nH]c2=O)C(NC(=O)OCc2ccccc2)C(O)C1O (configuration not stated)"
  Readout Value: 32.4

Query block: // query TGI value for entry CC[n+]1c(-c2ccccc2)c2cc(N)ccc2c2ccc(N)cc21
Result block: 10.7

Query block: Sample O=C(Nc1ccccc1C(=O)NC(=O)c1ccccc1NC(=O)c1ccccc1)c1ccccc1 — what was its TGI?
Result block: 7.78

Query block: Name the recorded TGI for C=C1C(=O)O[C@@H]2C[C@@]3(C)[C@H](O)CCC(=C)[C@@H]3C[C@H]12 .
Result block: 27.4

Query block: GET /values?readout=TGI&item= O=[N+]([O-])c1cccnc1S(=O)(=O)c1ccccc1
Result block: 21.3

---

# Tested on: HL-60(TB) leukemia
# Assay Text: NCI tumour cell line growth inhibition, 48 h
Assay Metric: TGI

Worked cases, TGI given:
- Compound: "COc1ccc(/C(C=O)=C(\\Cl)c2ccc(OC)c(OC)c2)cc1"
  TGI: "> 100 µM"
- Compound: "COc1ccc(C(=CCC(C)C2CCC3[C@@H]4C(OC(C)=O)CC5CC(OC(C)=O)CC[C@]5(C)C4CC(OC(C)=O)[C@]23C)c2ccc(OC)cc2)cc1 (stereo not given in full)"
  TGI: "45.3 µM"
- Compound: "O=C1Nc2noc(=O)nc2NO1"
  TGI: "> 200 µM"

Query block: Need TGI, item C/C(=N\NC(=S)NC(C)(C)C)c1nc2ncccc2[nH]1
Result block: > 21.6 µM

Query block: For COc1cc2c(cc1O)C(Cc1ccc(OCc3ccccc3)c(OCc3ccccc3)c1)N(C(=O)NCCc1ccccc1)CC2 (stereo not given) , what is its reported TGI?
Result block: > 100 µM

---

# Test system: SF-295 CNS
# Assay Text: NCI tumour cell line growth inhibition, 48 h
Assay Metric: TGI

A selection of reference data follows.
- Compound: "N#CC(C(=O)Nc1ccccc1)C1=C(Cl)C(=O)c2ccccc2C1=O (stereo not given)"
  TGI: "36.5 µM"
- Compound: "O=C(O)c1ccccc1NCn1nc(-c2ccccc2O)oc1=S"
  TGI: "> 100 µM"
- Compound: "COc1ccc(-c2cnc(-c3ccncc3-c3cccc(OC)c3)o2)cc1"
  TGI: "13.8 µM"

Query block: For the compound shown here, COc1ccc2oc(=O)c(-c3cc4c(c(C)n3)c(=O)oc3ccc(OC)cc34)cc2c1 , give the reported TGI.
Result block: > 100 µM

Query block: Need TGI, item CCc1c(OC(C)=O)c2c(NC3OC(COC(C)=O)C(OC(C)=O)C(OC(C)=O)C3OC(C)=O)nc(SC)nc2oc1=O (stereo not given)
Result block: > 100 µM

---

# System: SF-295 CNS
# Assay Text: NCI tumour cell line growth inhibition, 48 h
Overview of reported TGI across a group of molecules:

Record excerpt, results attached:
- Molecule: "O=C(/C=C\\c1ccccc1)Oc1ccc(/C=C2\\CCC/C(=C\\c3ccc(OC(=O)/C=C\\c4ccccc4)cc3)C2=O)cc1"
  TGI: "> 100 µM"
- Molecule: "C/C(=C/CCC(C)[C@@H]1CC[C@]2(C)C3=C(CC[C@@]12C)[C@@]1(C)CCC(=O)C(C)(C)[C@@H]1CC3)C(=O)O (some centres undefined)"
  TGI: "2.02 µM"
- Molecule: "COc1ccc(C2C(=O)c3ccc(OC)cc3OC2c2cccnc2)cc1 (centres undefined)"
  TGI: "> 100 µM"
- Molecule: "CCCCCCC(=O)OC[n+]1ccc2c(C)c3[nH]c4ccc(OC)cc4c3c(C)c2c1"
  TGI: "1.59 µM"
- Molecule: "CCOC(=O)C1C(c2ccc(Br)cc2)N(Cc2ccccc2)C(c2ccc(Br)cc2)C(C(=O)OC)S1(=O)=O (centres undefined)"
  TGI: "> 100 µM"

Query block: // lookup TGI for Cc1nc2ccncc2[nH]1
Result block: > 100 µM

Query block: Form field: reported TGI of CC(=O)Oc1cc2c(cc1OCC(F)(F)F)[C@H]1CC[C@]3(C)[C@@H](OC(C)=O)CC[C@H]3[C@@H]1CC2=O
Result block: 88.3 µM

Query block: Which TGI is listed for CCOC(=O)N1CCNCCN(C(=O)OCC)CCNCC1 ?
Result block: > 100 µM

Query block: Which TGI is reported for this molecule? O=S(Nc1ccccc1)c1ccc(Cl)cc1 (centres undefined)
Result block: > 100 µM

---

# Tested on: MDA-MB-231 breast
# Assay Text: NCI tumour cell line growth inhibition, 48 h; in the data active = GI50 below about 0.43 µM; inactive = the rest
Please reply with one of these outcomes: active, inactive

// known answers, use as guide
- Compound: "O=C1Nc2ccc(-c3cccnc3)cc2/C1=C/c1cc(Br)c(O)c(Br)c1"
  Label Class: "inactive"
- Compound: "CC[n+]1c(-c2ccccc2)c2cc(N)ccc2c2ccc(N)cc21"
  Label Class: "inactive"
- Compound: "N#CN1CC[C@H](C(=O)Nc2ncc(-c3ccccc3)s2)C1"
  Label Class: "active"

Next:
Query block: Can you look up the reported call for O=C(O)c1ccccc1NCn1nc(-c2ccccc2O)oc1=S for me?
Result block: inactive

---

# Tested on: ACHN renal
# Assay Text: NCI tumour cell line growth inhibition, 48 h; in the data active means GI50 below about 0.43 µM; inactive means the rest
Mark one answer only. Choices: t (active), f (inactive)

For orientation, consider the following solved cases.
- Compound: "NC1=NC(c2ccccc2Cl)c2c(n[nH]c2N)N1 (configuration not stated)"
  Label Class: "f"
- Compound: "Cn1cc(-c2ccc3ncc(-c4ccc(CC(=O)Nc5cc(C(C)(C)C)nn5C)cc4)cc3c2)cn1"
  Label Class: "f"
- Compound: "OCCNc1nc2ccccc2c2[nH]c3ccccc3c12"
  Label Class: "t"
- Compound: "Cc1ccccc1Nc1cc(O)c2c(=O)cc(-c3ccccc3)oc2c1"
  Label Class: "f"
- Compound: "O=C1Nc2ccc(-c3cccnc3)cc2/C1=C/c1cc(Br)c(O)c(Br)c1"
  Label Class: "f"
- Compound: "CCN1C(=O)N(CC)C2C1NC(=S)N2/N=C/C=C/c1ccccc1 (configuration not stated)"
  Label Class: "t"
- Compound: "CN(C)CCNC(=O)Nc1ccc(N(C)c2ccnc(Nc3ccc(CS(C)(=O)=O)cc3)n2)cc1"
  Label Class: "f"
- Compound: "C/C(=N\\NC(=S)N1CCC1)c1ccccn1"
  Label Class: "t"

Query block: Which outcome did this test record for the compound OCc1ccc(-c2ccc(-c3ccc(CO)o3)o2)o1 ?
Result block: f

Query block: // return assay outcome for C#COc1cccc(Nc2ncnc3cc(NC(=O)[C@@H](C)Cl)ccc23)c1
Result block: f

The origin of these recorded values is PubChem BioAssay (NCI).
